Reference source: paper PMC6100475

TEST DESCRIPTION: Pharmacokinetic study in rats after oral administration of Epimedium extract (HPLC-MS/MS of plasma)
Assay type: in vivo, Male Sprague-Dawley rats
COND: male, Sprague-Dawley; rat plasma, single oral dose of Epimedium extract 10 g/kg, n = 6
MEASURED QUANTITY: AUC(0-inf) (µg·h/mL)

Worked set:
MOLECULE	QUANTITATIVE RESULT
COc1ccc(-c2oc3c(CC=C(C)C)c(OC4OC(CO)C(O)C(O)C4O)cc(O)c3c(=O)c2OC2OC(C)C(O)C(O)C2OC2OCC(O)C(O)C2O)cc1 (stereo not drawn) [epimedin B]	1.07
O=C(/C=C/c1ccc(O)c(O)c1)O[C@H]1[C@H](O)C[C@](O)(C(=O)O)C[C@H]1O [cryptochlorogenic acid]	0.404

(I) COc1ccc(-c2oc3c(CC=C(C)C)c(O)cc(O)c3c(=O)c2OC2OC(C)C(O)C(O)C2OC2OCC(O)C(O)C2O)cc1 (stereo not drawn) [sagittatoside B]
(II) COc1ccc(-c2oc3c(CC=C(C)C)c(O[C@@H]4O[C@H](CO)[C@@H](O)[C@H](O)[C@H]4O)cc(O)c3c(=O)c2O[C@@H]2O[C@@H](C)[C@H](O)[C@@H](O)[C@H]2O)cc1 [icariin]
Choose between I and II : whose measured AUC(0-inf) value is numerically larger? Write down the label of the entry you select.
I
(I: 1.04 µg·h/mL, II: 0.325 µg·h/mL)

(P) COc1ccc(-c2oc3c(CC=C(C)C)c(O)cc(O)c3c(=O)c2O[C@@H]2O[C@@H](C)[C@H](O)[C@@H](O)[C@H]2O)cc1 [baohuoside I]
(Q) COc1ccc(-c2oc3c(CC=C(C)C)c(OC4OC(CO)C(O)C(O)C4O)cc(O)c3c(=O)c2OC2OC(C)C(O)C(O)C2OC2OC(C)C(O)C(O)C2O)cc1 (stereo not drawn) [epimedin C]
(R) CC(C)=CCc1c(O)cc(O)c2c(=O)c(OC3OC(C)C(O)C(O)C3O)c(-c3ccc(O)cc3)oc12 (stereo not drawn) [baohuoside II]
(S) COc1ccc2c(c1O)-c1c(O)c(OC)cc3c1[C@H](C2)[N+](C)(C)CC3 [magnoflorine]
(T) COc1ccc(-c2oc3c(CC=C(C)C)c(OC4OC(CO)C(O)C(O)C4O)cc(O)c3c(=O)c2OC2OC(C)C(O)C(O)C2OC2OC(CO)C(O)C(O)C2O)cc1 (stereo not drawn) [epimedin A]
// smallest AUC(0-inf) at index 0, largest at the end State the ranking by listing the labels in the requested order.
R, T, Q, P, S
(R: 0.355 µg·h/mL, T: 0.6 µg·h/mL, Q: 0.919 µg·h/mL, P: 1.68 µg·h/mL, S: 4 µg·h/mL)

(A) O=C(/C=C/c1ccc(O)c(O)c1)O[C@@H]1C[C@](O)(C(=O)O)C[C@@H](O)[C@H]1O [chlorogenic acid]
(B) O=C(/C=C/c1ccc(O)c(O)c1)O[C@@H]1C[C@@](O)(C(=O)O)C[C@@H](O)[C@@H]1O [neochlorogenic acid]
(C) COc1ccc(-c2oc3c(CC=C(C)C)c(O)cc(O)c3c(=O)c2O[C@@H]2O[C@@H](C)[C@H](O)[C@@H](O)[C@H]2O[C@@H]2O[C@H](CO)[C@@H](O)[C@H](O)[C@H]2O)cc1 [sagittatoside A]
Arrange the 3 molecules from largest to smallest AUC(0-inf). State the ranking by listing the labels in the requested order.
C, A, B
